Measured Potency values are reported for all entries that follow.
test-method-notes: Identification of antibody-drug conjugate (ADC) payloads which are substrates of ATP-binding cassette drug efflux transporters: ABCG2-HEK293-pcDNA cell line
condition-set: ABCG2-HEK293 transfected cells viability, CellTiter-Glo, 48 h
Records with an inconclusive call do not appear. Active and inactive are the calls of the source. The call rests on the fitted dose curve; in most records, active means well fitted inhibition curve with a large enough effect; inconclusive means small, poorly fitted or top-dose-only effect; inactive means flat fitted curve, though single readings scatter.

Known results for compounds:
compound | quantity | recorded-measurement
COc1cc2cc(c1Cl)N(C)C(=O)C[C@H](OC(=O)[C@H](C)N(C)C(=O)CCC(C)(C)S)[C@]1(C)OC1[C@H](C)C1C[C@@](O)(NC(=O)O1)[C@H](OC)/C=C/C=C(\C)C2 (some centres undefined) | Potency | 2.4 nM (active)
CC[C@H](C)[C@H](NC(=O)[C@H]1CCCCN1C)C(=O)N(C)[C@H](C[C@@H](OC(C)=O)c1nc(C(=O)N[C@@H](Cc2ccccc2)C[C@H](C)C(=O)O)cs1)C(C)C | Potency | 23.8 nM (active)
COc1cc2cc(C(=O)N3C[C@@H](CCl)c4c3cc(O)c3ccccc43)[nH]c2c(OC)c1OC | Potency | 7.5 nM (active)

Which Potency value is on record for `CC[C@H](C)[C@@H]([C@@H](CC(=O)N1CCC[C@H]1[C@H](OC)[C@@H](C)C(=O)N[C@H](C)[C@@H](O)c1ccccc1)OC)N(C)C(=O)[C@@H](NC(=O)[C@H](C(C)C)N(C)C)C(C)C` ?
9.5 nM (active)

Data origin: PubChem BioAssay AID2061324
